# Tested on: FaDu
# Protocol description: In vitro cytotoxicity assay (CellTiter-Glo), FaDu
# Assay type: cell-based, Human
# Conditions used: FaDu cells, 6 days incubation, mean of IC50 values; read-out: Cytotoxicity IC50
pIC50: −log10 of the molar value.
Endpoint: pIC50

                                smiles_code  measured_on  observed_value
0  CC[C@@]1(O)C(=O)OCc2c1cc1n(c2=O)Cc2c-1nc1cc(F)c(C)c3c1c2[C@@H](NC(=O)CO)CC3         FaDu            9.05

====

# System: FaDu
# Protocol description: In vitro cytotoxicity assay (CellTiter-Glo), FaDu
# Type: cell-based, Human
# Conditions used: Homo sapiens, FaDu, 144 h, read-out: Cytotoxicity IC50
So basically, if IC50 comes in under 90 nM it's criterion met, and if it's 90 nM or more it's criterion not met.

                                   compound   class_assignment
0  CC[C@@]1(O)C(=O)OCc2c1cc1n(c2=O)Cc2c-1nc1cc(F)c(C)c3c1c2[C@@H](NC(=O)c1cc(O)[nH]n1)CC3  criterion not met
1  CC[C@@]1(O)C(=O)OCc2c1cc1n(c2=O)Cc2c-1nc1cc(F)c(C)c3c1c2[C@@H](NC(=O)C1CC(O)C1)CC3 (stereo partly drawn)      criterion met
2  CC[C@@]1(O)C(=O)OCc2c1cc1n(c2=O)Cc2c-1nc1cc(F)c(C)c3c1c2[C@@H](NCc1cnnn1CCO)CC3      criterion met
3  CC[C@@]1(O)C(=O)OCc2c1cc1n(c2=O)Cc2c-1nc1cc(F)c(C)c3c1c2[C@@H](NC(=O)CCC(=O)NC(CO)(CO)CO)CC3  criterion not met
4  CC[C@@]1(O)C(=O)OCc2c1cc1n(c2=O)Cc2c-1nc1cc(F)c(C)c3c1c2[C@@H](NCCOCCO)CC3      criterion met
5  CC[C@@]1(O)C(=O)OCc2c1cc1n(c2=O)Cc2c-1nc1cc(F)c(C)c3c1c2[C@@H](N(CCO)C(C)=O)CC3      criterion met

Values compiled from patent US20250101032A1.
